All values here come from ChEMBL document CHEMBL4342489.

compounds and their reported Ratio AUC
- study-target: Sodium channel protein type 1 subunit alpha (Homo sapiens) (UniProt P35498)
- experiment-description: Activation of human Nav1.1 expressed in HEK293 cells assessed as ratio of compound activation AUC to baseline activation AUC at 1.11 uM at -120 mV holding potential by Qpatch assay
- Format: cell-based
Residues, ends and D or L forms follow the SMILES beside them.
property: Ratio AUC

compound="CC[C@H](C)[C@H](NC(=O)[C@H](CCCNC(=N)N)NC(=O)[C@@H](NC(=O)[C@@H](N)CCCNC(=N)N)[C@@H](C)CC)C(=O)NCC(=O)N[C@@H](CC(C)C)C(=O)N[C@@H](Cc1ccccc1)C(=O)N[C@@H](CC(=O)O)C(=O)N[C@@H](CCC(N)=O)C(=O)N[C@@H](CC(C)C)C(=O)N[C@@H](Cc1ccccc1)C(=O)N[C@@H](CCCNC(=N)N)C(=O)N[C@@H](CC(C)C)C(N)=O (H-RIRIGLFDQLFRL-NH2)" numeric_value=1.6
compound="CC[C@H](C)[C@H](NC(=O)[C@H](CCCNC(=N)N)NC(=O)[C@@H](NC(=O)[C@@H](N)CCCNC(=N)N)[C@@H](C)CC)C(=O)NCC(=O)N[C@@H](CC(C)C)C(=O)N[C@@H](Cc1ccccc1)C(=O)N[C@@H](CC(=O)O)C(=O)N[C@@H](CCC(N)=O)C(=O)N[C@@H](CC(C)C)C(=O)N[C@@H](CC(C)C)C(=O)N[C@@H](CCCNC(=N)N)C(=O)N[C@@H](CC(C)C)C(N)=O (H-RIRIGLFDQLLRL-NH2)" numeric_value=2.9
compound="CC[C@H](C)[C@H](NC(=O)[C@H](CCCNC(=N)N)NC(=O)[C@@H](NC(=O)[C@@H](N)CCCNC(=N)N)[C@@H](C)CC)C(=O)NCC(=O)N[C@@H](CC(C)C)C(=O)N[C@@H](Cc1ccccc1)C(=O)N[C@@H](CC(=O)O)C(=O)N[C@@H](CCC(N)=O)C(=O)N[C@@H](CC(C)C)C(=O)N[C@@H](Cc1c[nH]c2ccccc12)C(=O)N[C@@H](CCCNC(=N)N)C(=O)N[C@@H](CC(C)C)C(N)=O (H-RIRIGLFDQLWRL-NH2)" numeric_value=2.8

* * *

- study-target: Sodium channel protein type 5 subunit alpha (Homo sapiens, UniProt Q14524)
- Sequence (Q14524 whole entry): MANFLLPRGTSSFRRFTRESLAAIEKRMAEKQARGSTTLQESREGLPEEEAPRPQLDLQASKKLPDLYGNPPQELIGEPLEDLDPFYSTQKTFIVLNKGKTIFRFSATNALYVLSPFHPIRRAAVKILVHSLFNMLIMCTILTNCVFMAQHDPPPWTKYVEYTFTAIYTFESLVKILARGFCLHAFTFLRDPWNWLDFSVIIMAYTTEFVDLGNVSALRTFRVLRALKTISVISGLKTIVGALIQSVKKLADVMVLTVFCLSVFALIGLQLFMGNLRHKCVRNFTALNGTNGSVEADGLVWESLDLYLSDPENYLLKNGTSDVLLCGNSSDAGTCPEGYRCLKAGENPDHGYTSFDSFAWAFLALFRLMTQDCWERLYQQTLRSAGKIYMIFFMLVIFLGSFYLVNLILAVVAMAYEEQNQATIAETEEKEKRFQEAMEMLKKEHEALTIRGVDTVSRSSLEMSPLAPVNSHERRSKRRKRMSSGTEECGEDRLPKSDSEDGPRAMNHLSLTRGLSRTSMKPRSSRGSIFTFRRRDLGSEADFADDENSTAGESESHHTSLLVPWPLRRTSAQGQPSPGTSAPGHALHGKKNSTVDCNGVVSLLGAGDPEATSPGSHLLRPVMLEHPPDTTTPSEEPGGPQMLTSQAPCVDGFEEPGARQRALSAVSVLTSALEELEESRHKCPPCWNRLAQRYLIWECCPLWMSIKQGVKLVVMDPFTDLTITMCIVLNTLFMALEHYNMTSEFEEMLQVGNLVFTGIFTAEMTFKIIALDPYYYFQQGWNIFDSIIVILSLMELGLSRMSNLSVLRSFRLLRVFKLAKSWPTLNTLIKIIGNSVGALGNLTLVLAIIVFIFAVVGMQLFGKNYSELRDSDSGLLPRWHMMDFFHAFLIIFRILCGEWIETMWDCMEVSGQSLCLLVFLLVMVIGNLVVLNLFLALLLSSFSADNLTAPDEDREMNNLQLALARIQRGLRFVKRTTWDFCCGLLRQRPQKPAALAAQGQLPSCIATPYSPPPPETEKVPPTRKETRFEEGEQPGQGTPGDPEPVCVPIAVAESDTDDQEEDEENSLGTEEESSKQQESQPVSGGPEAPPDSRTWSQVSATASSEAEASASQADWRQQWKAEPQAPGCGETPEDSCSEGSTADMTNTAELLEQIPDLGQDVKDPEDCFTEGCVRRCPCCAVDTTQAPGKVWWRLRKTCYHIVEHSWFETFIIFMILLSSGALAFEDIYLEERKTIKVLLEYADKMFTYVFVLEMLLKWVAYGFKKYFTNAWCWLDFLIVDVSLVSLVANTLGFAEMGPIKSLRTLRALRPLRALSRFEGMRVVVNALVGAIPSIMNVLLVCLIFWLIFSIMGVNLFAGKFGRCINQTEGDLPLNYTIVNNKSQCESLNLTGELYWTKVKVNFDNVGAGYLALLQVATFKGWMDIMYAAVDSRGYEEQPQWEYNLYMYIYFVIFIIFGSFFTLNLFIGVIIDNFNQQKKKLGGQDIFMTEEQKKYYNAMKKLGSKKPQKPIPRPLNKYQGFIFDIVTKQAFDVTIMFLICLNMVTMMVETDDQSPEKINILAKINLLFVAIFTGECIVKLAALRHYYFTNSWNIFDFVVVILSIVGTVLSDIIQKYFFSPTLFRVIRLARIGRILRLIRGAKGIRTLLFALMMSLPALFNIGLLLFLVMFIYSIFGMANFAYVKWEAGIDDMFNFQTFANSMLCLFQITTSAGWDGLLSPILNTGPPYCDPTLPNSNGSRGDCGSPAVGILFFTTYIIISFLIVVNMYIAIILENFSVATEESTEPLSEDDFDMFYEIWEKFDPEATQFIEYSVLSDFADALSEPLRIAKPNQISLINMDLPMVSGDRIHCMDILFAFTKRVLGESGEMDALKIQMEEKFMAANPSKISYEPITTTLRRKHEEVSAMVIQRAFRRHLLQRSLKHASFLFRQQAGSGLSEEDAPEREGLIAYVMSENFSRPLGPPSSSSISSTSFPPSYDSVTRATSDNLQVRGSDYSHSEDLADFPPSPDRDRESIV
- experiment-description: Activation of human Nav1.5 expressed in HEK293 cells assessed as ratio of compound activation AUC to baseline activation AUC at 3.3 uM at -120 mV holding potential by Qpatch assay
- Assay type: cell-based
- experimental-conditions: hek293, 3.3 µM
Non-standard residues stand in square brackets, D forms with d. Residues, ends and D or L forms follow the SMILES beside them. 1Nal = N[C@@H](Cc1cccc2ccccc12)C(=O)O; 2Nal = N[C@@H](Cc1ccc2ccccc2c1)C(=O)O
property: Ratio AUC

molecule="CC[C@H](C)[C@H](NC(=O)[C@H](CCCNC(=N)N)NC(=O)[C@@H](NC(=O)[C@@H](N)CCCNC(=N)N)[C@@H](C)CC)C(=O)NCC(=O)N[C@@H](CC(C)C)C(=O)N[C@@H](Cc1ccc2ccccc2c1)C(=O)N[C@@H](CC(=O)O)C(=O)N[C@@H](CCC(N)=O)C(=O)N[C@@H](CC(C)C)C(=O)N[C@@H](CC(C)C)C(=O)N[C@@H](CCCNC(=N)N)C(=O)N[C@@H](CC(C)C)C(N)=O (H-RIRIGL[2Nal]DQLLRL-NH2)" numeric_value=1.3
molecule="CC[C@H](C)[C@H](NC(=O)[C@H](CCCCN)NC(=O)[C@@H](NC(=O)[C@@H](N)CCCNC(=N)N)[C@@H](C)CC)C(=O)NCC(=O)N[C@@H](CC(C)C)C(=O)N[C@@H](Cc1ccccc1)C(=O)N[C@@H](CC(=O)O)C(=O)N[C@@H](CCC(N)=O)C(=O)N[C@@H](CC(C)C)C(=O)N[C@@H](CO)C(=O)N[C@@H](CCCNC(=N)N)C(=O)N[C@@H](CC(C)C)C(N)=O (H-RIKIGLFDQLSRL-NH2)" numeric_value=1
molecule="CC[C@H](C)[C@H](NC(=O)[C@H](CCCCN)NC(=O)[C@@H](NC(=O)[C@@H](N)CCCNC(=N)N)[C@@H](C)CC)C(=O)NCC(=O)N[C@@H](CC(C)C)C(=O)N[C@@H](Cc1cccc2ccccc12)C(=O)N[C@@H](CC(=O)O)C(=O)N[C@@H](CCC(N)=O)C(=O)N[C@@H](CC(C)C)C(=O)N[C@@H](CO)C(=O)N[C@@H](CCCNC(=N)N)C(=O)N[C@@H](CC(C)C)C(N)=O (H-RIKIGL[1Nal]DQLSRL-NH2)" numeric_value=1.7
molecule="CC[C@H](C)[C@H](NC(=O)[C@H](CCCCN)NC(=O)[C@@H](NC(=O)[C@@H](N)CCCNC(=N)N)[C@@H](C)CC)C(=O)NCC(=O)N[C@@H](CC(C)C)C(=O)N[C@@H](Cc1ccc2ccccc2c1)C(=O)N[C@@H](CC(=O)O)C(=O)N[C@@H](CCC(N)=O)C(=O)N[C@@H](CC(C)C)C(=O)N[C@@H](CO)C(=O)N[C@@H](CCCNC(=N)N)C(=O)N[C@@H](CC(C)C)C(N)=O (H-RIKIGL[2Nal]DQLSRL-NH2)" numeric_value=4

* * *

- study-target: Sodium channel protein type 9 subunit alpha (Homo sapiens) (UniProt Q15858)
- Sequence (Q15858 whole entry, looked up): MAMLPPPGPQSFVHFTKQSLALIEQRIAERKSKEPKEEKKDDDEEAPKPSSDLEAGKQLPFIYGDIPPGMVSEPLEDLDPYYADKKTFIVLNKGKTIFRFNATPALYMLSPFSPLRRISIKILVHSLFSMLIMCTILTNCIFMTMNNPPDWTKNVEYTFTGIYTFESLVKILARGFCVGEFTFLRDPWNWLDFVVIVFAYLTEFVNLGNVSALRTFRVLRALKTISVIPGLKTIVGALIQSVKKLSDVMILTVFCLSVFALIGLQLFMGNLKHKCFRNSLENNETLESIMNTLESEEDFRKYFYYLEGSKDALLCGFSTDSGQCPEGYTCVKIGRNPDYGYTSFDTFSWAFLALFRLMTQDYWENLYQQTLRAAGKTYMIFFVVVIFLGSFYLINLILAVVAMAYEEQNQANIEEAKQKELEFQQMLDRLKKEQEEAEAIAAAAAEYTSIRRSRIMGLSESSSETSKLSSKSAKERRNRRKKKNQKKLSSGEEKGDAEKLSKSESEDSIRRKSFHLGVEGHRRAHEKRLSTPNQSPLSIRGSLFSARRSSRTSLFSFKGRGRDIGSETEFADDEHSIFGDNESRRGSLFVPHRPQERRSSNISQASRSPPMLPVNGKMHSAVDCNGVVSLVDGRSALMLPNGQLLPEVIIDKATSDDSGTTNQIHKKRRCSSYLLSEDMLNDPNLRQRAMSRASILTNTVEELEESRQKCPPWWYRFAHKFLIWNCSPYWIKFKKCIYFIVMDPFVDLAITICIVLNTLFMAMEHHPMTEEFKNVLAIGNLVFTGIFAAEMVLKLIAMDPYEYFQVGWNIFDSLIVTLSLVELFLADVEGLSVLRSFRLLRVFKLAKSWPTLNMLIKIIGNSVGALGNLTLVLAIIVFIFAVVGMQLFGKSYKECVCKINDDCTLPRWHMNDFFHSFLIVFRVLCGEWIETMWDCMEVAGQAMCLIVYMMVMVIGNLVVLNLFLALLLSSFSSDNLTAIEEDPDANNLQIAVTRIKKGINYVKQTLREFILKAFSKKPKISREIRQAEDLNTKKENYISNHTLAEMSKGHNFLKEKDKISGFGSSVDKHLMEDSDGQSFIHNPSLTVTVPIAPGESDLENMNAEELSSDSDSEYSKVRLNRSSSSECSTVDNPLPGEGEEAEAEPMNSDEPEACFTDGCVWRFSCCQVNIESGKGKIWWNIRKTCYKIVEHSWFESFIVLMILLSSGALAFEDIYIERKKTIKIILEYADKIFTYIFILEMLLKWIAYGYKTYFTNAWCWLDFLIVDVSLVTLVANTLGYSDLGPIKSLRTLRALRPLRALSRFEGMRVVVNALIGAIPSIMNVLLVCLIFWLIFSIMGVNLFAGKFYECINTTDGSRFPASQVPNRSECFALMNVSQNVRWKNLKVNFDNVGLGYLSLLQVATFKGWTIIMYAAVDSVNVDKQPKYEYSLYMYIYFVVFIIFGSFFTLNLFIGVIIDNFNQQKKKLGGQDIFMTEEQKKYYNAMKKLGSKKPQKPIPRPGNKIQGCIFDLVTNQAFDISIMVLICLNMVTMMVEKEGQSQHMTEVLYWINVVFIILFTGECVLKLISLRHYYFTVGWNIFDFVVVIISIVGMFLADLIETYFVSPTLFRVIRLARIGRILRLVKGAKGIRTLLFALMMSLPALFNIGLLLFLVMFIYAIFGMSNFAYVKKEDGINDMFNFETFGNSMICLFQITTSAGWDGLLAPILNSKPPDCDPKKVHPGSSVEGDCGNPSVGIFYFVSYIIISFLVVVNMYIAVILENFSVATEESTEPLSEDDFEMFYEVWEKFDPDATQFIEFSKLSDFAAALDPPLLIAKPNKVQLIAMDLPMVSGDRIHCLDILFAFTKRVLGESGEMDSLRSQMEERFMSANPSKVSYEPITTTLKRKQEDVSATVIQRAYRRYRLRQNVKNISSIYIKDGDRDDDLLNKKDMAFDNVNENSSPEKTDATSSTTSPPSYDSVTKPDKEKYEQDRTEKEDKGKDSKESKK
- experiment-description: Activation of human Nav1.7 expressed in HEK293 cells assessed as ratio of compound activation AUC to baseline activation AUC at 3.3 uM at -120 mV holding potential by Qpatch assay
- Type: cell-based
Non-standard residues stand in square brackets, D forms with d. Residues, ends and D or L forms follow the SMILES beside them. 1Nal = N[C@@H](Cc1cccc2ccccc12)C(=O)O; 2Nal = N[C@@H](Cc1ccc2ccccc2c1)C(=O)O
property: Ratio AUC

molecule="CC[C@H](C)[C@H](NC(=O)[C@H](CCCCN)NC(=O)[C@@H](NC(=O)[C@@H](N)CCCNC(=N)N)[C@@H](C)CC)C(=O)NCC(=O)N[C@@H](CC(C)C)C(=O)N[C@@H](Cc1ccc2ccccc2c1)C(=O)N[C@@H](CC(=O)O)C(=O)N[C@@H](CCC(N)=O)C(=O)N[C@@H](CC(C)C)C(=O)N[C@@H](CO)C(=O)N[C@@H](CCCNC(=N)N)C(=O)N[C@@H](CC(C)C)C(N)=O (H-RIKIGL[2Nal]DQLSRL-NH2)" numeric_value=4
molecule="CC[C@H](C)[C@H](NC(=O)[C@H](CCCCN)NC(=O)[C@@H](NC(=O)[C@@H](N)CCCNC(=N)N)[C@@H](C)CC)C(=O)NCC(=O)N[C@@H](CC(C)C)C(=O)N[C@@H](Cc1ccccc1)C(=O)N[C@@H](CC(=O)O)C(=O)N[C@@H](CCC(N)=O)C(=O)N[C@@H](CC(C)C)C(=O)N[C@@H](CO)C(=O)N[C@@H](CCCNC(=N)N)C(=O)N[C@@H](CC(C)C)C(N)=O (H-RIKIGLFDQLSRL-NH2)" numeric_value=1.1
molecule="CC[C@H](C)[C@H](NC(=O)[C@H](CCCCN)NC(=O)[C@@H](NC(=O)[C@@H](N)CCCNC(=N)N)[C@@H](C)CC)C(=O)NCC(=O)N[C@@H](CC(C)C)C(=O)N[C@@H](Cc1cccc2ccccc12)C(=O)N[C@@H](CC(=O)O)C(=O)N[C@@H](CCC(N)=O)C(=O)N[C@@H](CC(C)C)C(=O)N[C@@H](CO)C(=O)N[C@@H](CCCNC(=N)N)C(=O)N[C@@H](CC(C)C)C(N)=O (H-RIKIGL[1Nal]DQLSRL-NH2)" numeric_value=2.9

* * *

- study-target: Sodium channel protein type 2 subunit alpha (Homo sapiens)
- experiment-description: Activation of human Nav1.2 expressed in CHOK1 cells assessed as ratio of compound activation AUC to baseline activation AUC at 3.3 uM at -120 mV holding potential by Qpatch assay
- Assay type: cell-based
Non-standard residues stand in square brackets, D forms with d. Residues, ends and D or L forms follow the SMILES beside them. 1Nal = N[C@@H](Cc1cccc2ccccc12)C(=O)O; 2Nal = N[C@@H](Cc1ccc2ccccc2c1)C(=O)O
property: Ratio AUC

compound="CC[C@H](C)[C@H](NC(=O)[C@H](CCCCN)NC(=O)[C@@H](NC(=O)[C@@H](N)CCCNC(=N)N)[C@@H](C)CC)C(=O)NCC(=O)N[C@@H](CC(C)C)C(=O)N[C@@H](Cc1ccccc1)C(=O)N[C@@H](CC(=O)O)C(=O)N[C@@H](CCC(N)=O)C(=O)N[C@@H](CC(C)C)C(=O)N[C@@H](CO)C(=O)N[C@@H](CCCNC(=N)N)C(=O)N[C@@H](CC(C)C)C(N)=O (H-RIKIGLFDQLSRL-NH2)" property="Ratio AUC" numeric_value=0.9
compound="CC[C@H](C)[C@H](NC(=O)[C@H](CCCNC(=N)N)NC(=O)[C@@H](NC(=O)[C@@H](N)CCCNC(=N)N)[C@@H](C)CC)C(=O)NCC(=O)N[C@@H](CC(C)C)C(=O)N[C@@H](Cc1ccc2ccccc2c1)C(=O)N[C@@H](CC(=O)O)C(=O)N[C@@H](CCC(N)=O)C(=O)N[C@@H](CC(C)C)C(=O)N[C@@H](CC(C)C)C(=O)N[C@@H](CCCNC(=N)N)C(=O)N[C@@H](CC(C)C)C(N)=O (H-RIRIGL[2Nal]DQLLRL-NH2)" property="Ratio AUC" numeric_value=7.1
compound="CC[C@H](C)[C@H](NC(=O)[C@H](CCCCN)NC(=O)[C@@H](NC(=O)[C@@H](N)CCCNC(=N)N)[C@@H](C)CC)C(=O)NCC(=O)N[C@@H](CC(C)C)C(=O)N[C@@H](Cc1cccc2ccccc12)C(=O)N[C@@H](CC(=O)O)C(=O)N[C@@H](CCC(N)=O)C(=O)N[C@@H](CC(C)C)C(=O)N[C@@H](CO)C(=O)N[C@@H](CCCNC(=N)N)C(=O)N[C@@H](CC(C)C)C(N)=O (H-RIKIGL[1Nal]DQLSRL-NH2)" property="Ratio AUC" numeric_value=1.8
compound="CC[C@H](C)[C@H](NC(=O)[C@H](CCCCN)NC(=O)[C@@H](NC(=O)[C@@H](N)CCCNC(=N)N)[C@@H](C)CC)C(=O)NCC(=O)N[C@@H](CC(C)C)C(=O)N[C@@H](Cc1ccc2ccccc2c1)C(=O)N[C@@H](CC(=O)O)C(=O)N[C@@H](CCC(N)=O)C(=O)N[C@@H](CC(C)C)C(=O)N[C@@H](CO)C(=O)N[C@@H](CCCNC(=N)N)C(=O)N[C@@H](CC(C)C)C(N)=O (H-RIKIGL[2Nal]DQLSRL-NH2)" property="Ratio AUC" numeric_value=2.4
